Kindly state % Blocking for each of the entries shown.
Target of assay: T1, Hmm-hTFRC (REGN2431), monomeric human transferrin receptor ectodomain with N-terminal hexahistidine-myc-myc … (human, UniProt P02786 89-760)
T1 construct: also called hmm.hTfR(C89-F763); His-myc-myc-hTFRC ecto
T1 sequence (P02786 other isoform, or with tags, fused parts or gaps): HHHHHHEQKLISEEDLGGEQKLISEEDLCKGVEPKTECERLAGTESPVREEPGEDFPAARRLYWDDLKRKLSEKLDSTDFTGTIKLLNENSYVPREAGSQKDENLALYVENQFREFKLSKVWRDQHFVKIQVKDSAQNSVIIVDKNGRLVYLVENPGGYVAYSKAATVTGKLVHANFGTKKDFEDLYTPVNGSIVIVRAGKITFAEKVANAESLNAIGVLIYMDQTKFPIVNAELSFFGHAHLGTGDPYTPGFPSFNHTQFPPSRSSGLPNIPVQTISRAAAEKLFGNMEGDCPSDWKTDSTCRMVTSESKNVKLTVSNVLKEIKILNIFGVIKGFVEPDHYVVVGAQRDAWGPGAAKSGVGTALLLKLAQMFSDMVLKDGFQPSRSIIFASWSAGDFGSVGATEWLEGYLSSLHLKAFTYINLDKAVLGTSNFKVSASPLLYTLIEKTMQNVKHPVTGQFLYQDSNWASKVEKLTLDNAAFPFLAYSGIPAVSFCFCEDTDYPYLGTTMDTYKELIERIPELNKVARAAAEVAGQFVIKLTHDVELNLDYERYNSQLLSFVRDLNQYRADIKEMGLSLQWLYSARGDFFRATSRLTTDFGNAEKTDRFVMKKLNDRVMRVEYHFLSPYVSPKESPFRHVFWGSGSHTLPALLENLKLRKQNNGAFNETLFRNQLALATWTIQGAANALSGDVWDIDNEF
Test summary: blocking ELISA, supernatant; Hmm-hTFRC binding to immobilized human holo-Tf
Numbers only, in %.

Example entries and their recorded answers appear below.
{"Binder": "12798B scFv (VK-VH) (scFv, CHO supernatant; Vk-3xG4S-Vh) scFv: EIVMTQSPATLSVSPGERATLSCRASQTVSSNLAWYQQKPGQAPRLLIYGSSSRATGIPARFSGSGSGTEFTLTISSLQSEDFAVYYCQQYNNWPPYTFGQGTKLEIKGGGGSGGGGSGGGGSEVQLVESGGDLVQPGRSLRLSCAASGFTFDDYAMHWVRQAPGKGLEWVSGISWNSATRVYADSVKGRFTISRDNAKNFLYLQMNSLRSEDTALYHCAKDMDISLGYYGLDVWGQGTTVTVSS", "% Blocking / %": 10}
{"Binder": "12798B scFv (VH-VK) (scFv, CHO supernatant) scFv: EVQLVESGGDLVQPGRSLRLSCAASGFTFDDYAMHWVRQAPGKGLEWVSGISWNSATRVYADSVKGRFTISRDNAKNFLYLQMNSLRSEDTALYHCAKDMDISLGYYGLDVWGQGTTVTVSSGGGGSGGGGSGGGGSEIVMTQSPATLSVSPGERATLSCRASQTVSSNLAWYQQKPGQAPRLLIYGSSSRATGIPARFSGSGSGTEFTLTISSLQSEDFAVYYCQQYNNWPPYTFGQGTKLEIK", "% Blocking / %": 0}

Turning to the following binder.
QUERY: For the binder 69332 Fab (Fab, V domains shown, CHO supernatant) VH: QVTLRESGPALVKPSQTLTLTCTFSGFSLNTYGMFVSWIRQPPGKALEWLAHIHWDDDKYYSTSLKTRLTISKDTSKNQVVLTMTNMDPVDTATYYCARGHNNLNYIIHWGQGTLVTVSS VL: AIQMTQSPSSLSASVGDRVTITCRASQGIRNDLGWYQQKPGKAPKLLIYAASTLQSGVPSRFSGSGSGTDFTLTISSLQPEDFATYYCLQDYNYPFTFGPGTKVDIKR , report % Blocking.
RESULT: 18

Data origin: patent US20250049896A1
